Measured Tmax, listed per entry for reference.
methodDescription: Pharmacokinetics in rat plasma after oral administration of CGF, SGF, GCGF and GIGF extracts (LC-MS/MS)
runConditions: male, Sprague-Dawley, rat, plasma, po, 0.75 mL/kg, T max, rat plasma, single oral dose of GCGF extract 0.75 mL/kg, n = 6, mean ± SD
Only the number, expressed in h, is required.

Solved entries:
Measured Tmax of CC(/C=C/C=C(\C)C(=O)O)=C\C=C\C=C(C)\C=C\C=C(/C)C(=O)O : 6.43

Measured Tmax of COC(=O)C1=CO[C@@H](O)[C@@H]2C(CO)=CC[C@H]12 : 1.1

Measured Tmax of O=C(O)C1=CO[C@@H](O[C@@H]2O[C@H](CO)[C@@H](O)[C@H](O)[C@H]2O)[C@@H]2C(CO)=CC[C@H]12 : 3.33

Shifting focus to the molecule that follows.
Measured Tmax of COC(=O)C1=CO[C@@H](O[C@@H]2O[C@H](CO)[C@@H](O)[C@H](O)[C@H]2O)[C@@H]2C(CO)=CC[C@H]12 [Geniposide] : 0.86

----------
Measured Cmax, listed per entry for reference.
methodDescription: Pharmacokinetics in rat plasma after oral administration of CGF, SGF, GCGF and GIGF extracts (LC-MS/MS)
runConditions: male, Sprague-Dawley, rat, plasma, po, 0.75 mL/kg, C max, rat plasma, single oral dose of SGF extract 0.75 mL/kg, n = 6, mean ± SD
Only the number, expressed in ng/mL, is required.

Solved entries:
Measured Cmax of COC(=O)C1=CO[C@@H](O)[C@@H]2C(CO)=CC[C@H]12 [Genipin] : 98

Measured Cmax of COC(=O)C1=CO[C@@H](O[C@@H]2O[C@H](CO)[C@@H](O)[C@H](O)[C@H]2O)[C@@H]2C(CO)=CC[C@H]12 [Geniposide] : 455

***
Measured Cmax of CC(/C=C/C=C(\C)C(=O)O)=C\C=C\C=C(C)\C=C\C=C(/C)C(=O)O [Crocetin] : 153

Measured Cmax of O=C(O)C1=CO[C@@H](O[C@@H]2O[C@H](CO)[C@@H](O)[C@H](O)[C@H]2O)[C@@H]2C(CO)=CC[C@H]12 [Geniposidic acid] : 398

----------
methodDescription: Stability of the analytes in rat plasma QC samples under storage conditions
Type: in vitro ADME
runConditions: 10 ng/mL
testReadout: At −80°C for a month Remain (%)
Only the number, expressed in %, is required.

Measured At −80°C for a month Remain of O=C(O)C1=CO[C@@H](O[C@@H]2O[C@H](CO)[C@@H](O)[C@H](O)[C@H]2O)[C@@H]2C(CO)=CC[C@H]12 : 107

Measured At −80°C for a month Remain of COC(=O)C1=CO[C@@H](O[C@@H]2O[C@H](CO)[C@@H](O)[C@H](O)[C@H]2O)[C@@H]2C(CO)=CC[C@H]12 [Geniposide] : 99.2

----------
methodDescription: Pharmacokinetics in rat plasma after oral administration of CGF, SGF, GCGF and GIGF extracts (LC-MS/MS)
runConditions: male, Sprague-Dawley, rat, plasma, po, 0.75 mL/kg, C max, rat plasma, single oral dose of GIGF extract 0.75 mL/kg, n = 6, mean ± SD
testReadout: Cmax (ng/mL)
Only the number, expressed in ng/mL, is required.

Solved entries:
Measured Cmax of CC(/C=C/C=C(\C)C(=O)O)=C\C=C\C=C(C)\C=C\C=C(/C)C(=O)O : 91.2

Measured Cmax of COC(=O)C1=CO[C@@H](O[C@@H]2O[C@H](CO)[C@@H](O)[C@H](O)[C@H]2O)[C@@H]2C(CO)=CC[C@H]12 [Geniposide] : 212

Shifting focus to the compound that follows.
Measured Cmax of O=C(O)C1=CO[C@@H](O[C@@H]2O[C@H](CO)[C@@H](O)[C@H](O)[C@H]2O)[C@@H]2C(CO)=CC[C@H]12 : 272
